B1: H2-Kb / Ed21 (parent complex)
chain 1: AQSVTQPDARVTVSEGASLQLRCKYSYFGTPYLFWYVQYPRQGLQLLLKYYPGDPVVQGVNGFEAEFSKSNSSFHLRKASVHWSDWAVYFCAVSMSGGYKVVFGSGTRLLVSP
chain 2: DSGVVQSPRHIIKEKGGRSVLTCIPISGHSNVVWYQQTLGKELKFLIQHYEKVERDKGFLPSRFSVQQFDDYHSEMNMSALELEDSAMYFCASSPRQTDYTFGSGTRLLVI
chain 3: not shown
chain 4: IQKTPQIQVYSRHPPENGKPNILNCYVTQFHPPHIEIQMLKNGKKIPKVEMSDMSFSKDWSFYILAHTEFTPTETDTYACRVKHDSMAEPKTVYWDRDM
chain 5: SIINFEKL

Variants of: B1
Assay: % of reporter cells activated (NFAT-GFP), raw; note: test concentration or dose not given here
Readout type: ratio to parent
Give the figure only, with no unit attached.

A selection of reference data follows.
Mutant designation	ratio to parent
chain 5 S1L	0.793
chain 5 K7V	0.788
chain 5 I3Q	0.902
chain 5 I2K	0.906
chain 5 I2H	0.926
chain 5 E6A	0.845

Quick check: ratio to parent of chain 5 F5E ? 0.856

Quick check: ratio to parent of chain 5 S1I ? 0.745

Quick check: ratio to parent of chain 5 I3L ? 1.03

Quick check: ratio to parent of chain 5 F5Y ? 1.05

Quick check: ratio to parent of chain 5 F5H ? 0.947
